Data provenance: ChEMBL document CHEMBL1128674

assay: Acid dissociation constant of the compound; assay type: ADME
observable: pKa

                              record_smiles  observable  readout_number
0  CC(C)C[C@H](O)[C@H](O)[C@H](CC1CCCCC1)NC(=O)CN         pKa             7.5
1  CC(C)C[C@H](O)[C@H](O)[C@H](CC1CCCCC1)NC(=O)C[C@@H](NC(=O)OC(C)(C)C)C(=O)O         pKa             4.7
2  CC(C)C[C@H](O)[C@H](O)[C@H](CC1CCCCC1)NC(=O)[C@H](Cc1csc(N)n1)NC(=O)[C@H](Cc1ccccc1)NS(=O)(=O)N1CCN(C(=O)CCC(=O)O)CC1         pKa             5.9
